Binary call on logP with cut-off 2: strictly below means y, and equality or higher means n.

Known results for molecules:
O=C(OOC(=O)c1ccccc1)c1ccccc1
n
C=C(C)C(=O)OCC(O)COc1ccccc1 (stereo unspecified)
n
C=C(C)C(=O)OCCOCCOCCOC(=O)C(=C)C
y
Cc1ccc(N(CCO)CCO)cc1
y

QUERY: Does C=C(C)C(=O)OCC(CC)CCCC (stereo unspecified) have logP strictly under 2?
RESULT: n

QUERY: Does the reported logP of the following molecule sit strictly below 2? C=C(C)C(=O)OCC(O)COc1cccc2ccccc12 (stereo unspecified)
RESULT: n

QUERY: Does the reported logP of the following molecule sit strictly below 2? `C=C(C)C(=O)OCC`
RESULT: y

QUERY: Please check: logP for COC(C(=O)c1ccccc1)c1ccccc1 (stereo unspecified) , strictly under 2 or not?
RESULT: y

QUERY: Input `C=C(C)C(=O)OC` ; condition: logP strictly below 2. Does it hold?
RESULT: y

QUERY: For this molecule, is logP lower than 2? C=C(C)C(=O)OCC(C)(O)COc1cccc2ccccc12 (stereo unspecified)
RESULT: n

QUERY: Field: below-cutoff. Rule: recorded logP strictly less than 2. Subject: `C=Cc1ccc(C(=O)O)cc1`
RESULT: n
